Data provenance: patent US20200102387A1

target: T1, human SIRPγ-Fc (human); test: BLI Octet, antigen-Fc on biosensor;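 note: antigen captured on the biosensor tip and then immersed in solutions of the test antibodies, which act as the analyte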
T1 construct: a signal peptide may be part of the entry
Consider the following binders; for each one, report its koff.
Give the number; s⁻¹ is assumed, so skip it.

Task item: Please look up its koff: SIRPAB-13 (antibody, human IgG1, kappa, V domains shown) VH: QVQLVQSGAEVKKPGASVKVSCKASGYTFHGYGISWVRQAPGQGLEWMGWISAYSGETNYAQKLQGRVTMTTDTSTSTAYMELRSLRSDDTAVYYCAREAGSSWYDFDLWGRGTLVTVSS VL: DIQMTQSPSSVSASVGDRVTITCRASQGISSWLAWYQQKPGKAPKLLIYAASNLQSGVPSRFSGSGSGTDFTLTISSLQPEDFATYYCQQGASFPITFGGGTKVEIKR
Reply: 0.00558

Task item: Please look up its koff: SIRPAB-9 (antibody, human IgG1, kappa, V domains shown) VH: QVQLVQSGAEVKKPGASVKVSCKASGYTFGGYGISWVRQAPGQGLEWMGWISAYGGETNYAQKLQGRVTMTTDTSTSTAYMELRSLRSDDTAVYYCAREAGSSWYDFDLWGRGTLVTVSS VL: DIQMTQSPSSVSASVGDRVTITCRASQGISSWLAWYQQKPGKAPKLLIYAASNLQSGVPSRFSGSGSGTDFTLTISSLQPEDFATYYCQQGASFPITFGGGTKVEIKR
Reply: 0.00161

Task item: Please look up its koff: SIRPAB-7 (antibody, human IgG1, kappa, V domains shown) VH: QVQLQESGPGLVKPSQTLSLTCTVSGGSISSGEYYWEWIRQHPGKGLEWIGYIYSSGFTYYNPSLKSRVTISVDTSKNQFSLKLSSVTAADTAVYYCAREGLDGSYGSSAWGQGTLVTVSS VL: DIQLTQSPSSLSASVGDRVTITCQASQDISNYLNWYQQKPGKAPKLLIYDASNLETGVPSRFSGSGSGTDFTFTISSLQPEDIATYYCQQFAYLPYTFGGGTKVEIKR
Reply: 0.0002

Task item: Please look up its koff: SIRPAB-10 (antibody, human IgG1, kappa, V domains shown) VH: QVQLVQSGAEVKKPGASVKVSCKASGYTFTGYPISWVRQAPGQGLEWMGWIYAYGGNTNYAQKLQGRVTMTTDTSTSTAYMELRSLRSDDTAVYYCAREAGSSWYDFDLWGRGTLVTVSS VL: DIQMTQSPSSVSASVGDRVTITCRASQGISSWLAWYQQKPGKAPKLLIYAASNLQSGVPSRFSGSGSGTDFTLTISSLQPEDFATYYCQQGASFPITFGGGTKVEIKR
Reply: 0.00123
